Assay: yeast display, Sf9 membrane polyspecificity reagent, FACS + sequencing; frameworks hold sequencing errors

{"columns": ["entry sequence", "polyreactivity (PSR sort gate)"],
 "data": [
  ["QVQLVESGGGLVQAGGSLRLTCAASGSIFTGNTMGWYRQATGKERELVAAITGSGGRTYYADSVKGRFTISRDNAKNTVYLQMNSLKPEDTAVYYCAADRSYYPDTRTTYGYNYWGQGTQVTVSS", "low polyreactivity"],
  ["QVQLVESGGGLVQAGGSLRLSCAASGRTFIAYGMGWYRQAPGKERELVAAISRNGASTYYADSVKGRFTISRDNAKNTVYLQMNSLKPEDNAVYYCAAGYIRSRGGRWTHSGYWGQGTQVTVSS", "high polyreactivity"],
  ["QVQLVESGGGLVQAGGSLRLSCAPSGFTSWQYAMGWYRPAPGKERELVAAISVSGASTYYADSVKGRFTISRDNAKNTVYLQMNSLKPEDTAVYYCAAAYVRYPTTRYFYWGQGTQVTVSS", "high polyreactivity"],
  ["QFKLVESGGGLVQAGGSLRLSCAASGSIVERKTMGWYRQAPGKEMEFVAGITQSGGRTYYADSVKGRFTISRDNAKNTVYLQMNSLKPEDTAVYYCATKTPRAWSYGYWGQGTQVTVSS", "high polyreactivity"],
  ["QVQLVESGGGLVQEGGSLRLSCACSARTITGYAIGWYRQAPGQEWEVVAAIYRRGASTYYADSVKGRFTISRDNAKNTVYLEMNSLKPEDTAVDYCAAYLYGLWSVGRDYWGQGTQVTVSS", "high polyreactivity"],
  ["QVQLVESGGGLVQAGGSLRLSCAACGFTFWDYAMGWYSQAPGKERELVAAISDNDGSTDYADSVKGRFTISRDNAKNTVYLQMNSLKPEDSAVYYCNAEIELPSKEGDYWGQGTQVTVSS", "low polyreactivity"],
  ["QDQLVESGGGLVQAGGSLRLSCAASARIFPHYPMGWYRQAPGKERELVATITSGGRTNYADSVKGRFTISRDNAKNTVYLQMNSLKPEDTAVYYCAVDTWGSSWYDLFRETSDYWGHGTQVTVSS", "low polyreactivity"],
  ["QVQLVESGGGLVQAGGSLRLSCAASGIFYVYAMGWYRQAPGKERELVAAISSDGSTYYADSVKGRFTISRDNAKNTVYLQMNSLKPEDTAVYYCAAVWYWTQDYDYWGQGTQVTVSS", "low polyreactivity"],
  ["QVQLQESRGGQVQEGGSLRLSCAASGNISPPADMGWYRQAPGKERELVASIGTGGTTNYADSVKGRFTISRDNAKNTVYLQMKSLKPDDTAVYYCAAVRFEYNPYDYWGQGTQVTVSS", "low polyreactivity"],
  ["QVQLVESGGGLVQAGGSLRLSCAASGFTFGYYAMGWYRPAPGKERELVAGISSSGSRTYYADSVKGRFTISRDNAKNTVYLQMNSLKPEDTAVYYCNKYYSGKSYTGEDYWGQGTQVTVSS", "high polyreactivity"],
  ["QVQLVESGGGLVQAGGSLRLSCAASGITFFNYAMGWYRQAPGKERELVAAISGGSTYYADSVKGRFTISRDNAKNTVYLQMNSLKPEDTAVYYCAARVASKYLVYRKRPSRFDYWGQGTQVTVSS", "low polyreactivity"]
]}

---

Assay: yeast display, Sf9 membrane polyspecificity reagent, FACS + sequencing; frameworks hold sequencing errors

{"columns": ["entry sequence", "polyreactivity (PSR sort gate)"],
 "data": [
  ["QVQIVESRGGIVQAGGSLRLRCAASGSTFAGNAMGWYRQPPGKERELVAAITSSGGTTYYADSVKGRFTISRDNEKNTVYLQMNSLKPEDSAVYYCAAKSRRTRRSYYWGQGTQVNVSS", "high polyreactivity"],
  ["QVQLVESGGGLVQAGGSLRLSCAASGSIFTHNAMGCYRQAPGKERELVAAMSSGGSTNDADSVKGRFTISRDNAKNTVYLKMNSLTPEDTAVYYCAKSIDGWYWRRRRYDYWGQGTQVTVSS", "low polyreactivity"],
  ["QVQHEESGGGLVQAGGSLRLSCAASGLTFYPYAMGWYRQATGKESELVAGISASGGGTSYADSVKGRFTISRDNAKNTVYLQMNSLKPEDTAVYYCAATPTFFVWQGYNYWGQGTQVTVSS", "low polyreactivity"],
  ["QVQLVESGGGIVQAGGSIRLRCAASGIIFVVNDMGWYRQAPGKERELVADISDSGGSTNYADSVKGRFTISRDNAKNTVYLQMNRLKPEDTAVYYCAADSADPTEYDYWGQGSQVTVSS", "low polyreactivity"],
  ["QVQLVESGGGLVQAGGSLRLSCAASGYIFGVYAMGWYRQAPGKERELVAAISYGVGSTYYADSVKVRFTISRDNAKNTVYFQMNSLKPEDTAVYYCAADVFFYVYEAYLLYYWGQGSQVTVSS", "low polyreactivity"],
  ["QVQLVESGGGLVQAGGSLRLSCAASGGTFTRYTMGWYRQAHGKESELVAAISSSGGSTYYADSVKGRFTISRDNAKNTVYLQMNSLKPEDTAVYYCAAFKASSKQYPYDYWGQGTQVTVSS", "high polyreactivity"],
  ["QVQLVESAGGLVQAGGSLSLSCAASGRTFIRHAMGRDRQAPGKERELVAAINSGGITNYADSVKGRFTISRVNAKNTVFLKRNSLKPEDTAVYYCAAYKPWYVGLYPWYDYWGQGTQVTVSW", "low polyreactivity"],
  ["QVQLVESGGGLVQAGGSLRLSCAASGRTFGAYAMGWYRQAPGKERELVASISRSGGTTYYADSVKGRFTISRDTAKNTVYLQMNSLKPEDTAVYYCAAQYVRYGHYYWGQATQVTVSS", "high polyreactivity"],
  ["QVQLVESGGGLVQAGGSLRLSCAASGSTSGPYAMGWYRQAPGKETELVATISWIGDRTYYADSVKGRFTISRDNAKNTIYLQMNSLKPEDTAVYYCNADYRGYANLEGDYWGQGTQVTVSS", "low polyreactivity"],
  ["QVQLVESGGGLVQAGGSVRLICAASGSIFYTYAMGWYRQAPGKERELVAAISKRGGSTYDADSVKGRFTISRDNAKNTVYLQMNSLKPEDTAVYYCAADTQHVYGSNFYYWGQGTQVTVSS", "high polyreactivity"],
  ["QVQLVESGGGLVQAGGSLRLSCAASGSTFVYYAMGWYRQAPGKERELVARITRGGGSTNYADSLKARFTISRDNAKNTVYLHMNSLKPEDTAVYYCAKRRKVTYDYWGQGTQVSVSS", "high polyreactivity"],
  ["QVQLVESGGGLVQAGGSLRLSCAASGSIFRVYAMGWYRQAPGKERELVATISGSAGRTYYADSVKGRFTISRDNAKNTVYLQMNSLKPEDTAVYYCAARWYKEYYWGQGTQVTVSS", "high polyreactivity"],
  ["QVQLVESGGGLVQAGGSLRLSCADSGITLVYDGMGWDIQAPGKERELVAAISWTGGSTFYADSVKGLFTISLDNAKKTVYLQMNSLKPEDTAVYYCAADRGYFYSRIQVDSDYWGQGTQVTVSS", "low polyreactivity"],
  ["QVQLVESGGGLVQAGGSLRLSCAASGFISPQNTMGWYRQAPGKERELVAAITSGGSTYYADSVKGRFTISRDNAKNTVYLQMNSLKPEDTAVYYCAARPYGTWTYGYWGQGTQVTVSS", "low polyreactivity"],
  ["QVQLVESGGGLVQAGGSLRLSCAASGFTCPSYNMRWYRQAPGKERELVAAISRSDGNTYYADSVKGRFTISRDNAKNTVYLQMNSLKPEDTEVYYCAAEYEAYAYEYWGQGTQVTVSS", "high polyreactivity"],
  ["QVQLVESGGGLVQAGGSLRLSCAASGFILDYYAMGWYRQAPGKERELVAANSYSGGSTYYADSVKGRFTISRDNAKNTVYLQMTSLKAEDTGVYYGNAGVLVLLYAYLPSELEYWGQGTQVTVSS", "low polyreactivity"],
  ["QVQLVESVRGLVQAGGSLRLSCAASGRILPSNAMGWYRQAPGKERELVAGITSGGSTDYADSVKGRFTISRDNAKNTVYLQMNSLKPEDTAVYYCNKPFPYYPDGPNGYDYWGQGTQVTVSS", "low polyreactivity"],
  ["QVQLVESGGGLVQAGGSLRLSCAASGFIFDSYVMGWYRQAPGKERELVAAISRRNSSTYYADSVKGRFTNSRDNAKNTVYLQMNSLKPEDTAVYYCAAKYLRAYGYWGQGTQVTVSS", "high polyreactivity"],
  ["QVQLVESGGGLVQAGGRLRLSGAASGLIFTTYAMGWSRQAPGKVRELVAAISSSGDSTYYADSVKGRFTISRDNAKNTVYLQMNSLKPEDTAVYYRAARYYYRGYEFGYWGQGTQVTVSS", "high polyreactivity"],
  ["QVKLVESGGGLVQAGGSLRLSCAASGRNFYVYGMGWYRQAPGKERELVASITYRCGSTSYADSVKGRFTISRDNAKNTVYLQMNSLKPEDTAVYYCNADTYYRSDYWGQGTQVTVSS", "high polyreactivity"],
  ["QVQLVESGGGLVQAGGSLRLSCAASGTIFDDNAMGWYRHAPGKERELVAAISANDGSTYYADSVKGRFTISRDNAKNTVYLQMNSLKQEDTAVYYCAVLRVETVDIWEYDYWGQGTQVTVTS", "low polyreactivity"]
]}
